Give Minimal Inhibitory Concentration, P. aeruginosa ATCC 27853 for every item shown.
tested on: Pseudomonas aeruginosa ATCC 27853; format: cell-based; conditions: ATCC 27853, pH 7.4
Non-standard residues stand in square brackets, D forms with d. Residues, ends and D or L forms follow the SMILES beside them. *: point of attachment. Palmitoyl = CCCCCCCCCCCCCCCC(=O)*; Lauroyl = CCCCCCCCCCCC(=O)*
Numbers only, in µM.

[[record]]
compound = "CCCCCCCCCCCCCCCC(=O)N[C@@H](CCCCN)C(=O)N[C@H](CCCCN)C(=O)N[C@@H](CCC(=O)O)C(=O)N[C@@H](CCCCN)C(N)=O [PA-KKEK, Palmitoyl-Lys-D-Lys-Glu-Lys-NH2] (Palmitoyl-K[dK]EK-NH2)"
readout_units = "µM"
observed_measurement = 100


Then this compound:
Prompt: Requested read-out: Minimal Inhibitory Concentration, P. aeruginosa ATCC 27853. Entry: CCCCCCCCCCCC(=O)N[C@H](CC(C)C)C(=O)N[C@@H](CCCCN)C(=O)N[C@@H](CCCCN)C(=O)N[C@H](CC(C)C)C(=O)N[C@H](CC(C)C)C(=O)N[C@@H](CCCCN)C(=O)N[C@@H](CCCCN)C(=O)N[C@H](CC(C)C)C(=O)N[C@H](CC(C)C)C(=O)N[C@@H](CCCCN)C(=O)N[C@@H](CCCCN)C(=O)N[C@H](CC(C)C)C(N)=O [lipopeptide 22] (Lauroyl-[dL]KK[dL][dL]KK[dL][dL]KK[dL]-NH2)
Response: 25

====

Assay: Cytotoxicity, XTT viability, non-cancer cells
Assay type: cell-based
Conditions: mouse, non-cancer cell line, 24 h incubation, read-out: LC50, 3T3
Method: Prostate cancer cell lines (CL1 and 22RV1; ATCC, USA) were grown in RPMI-1640 supplemented with 10% FCS (Biological Industries, Beit Haemek, Israel). N1H-3T3 mouse fibroblast cell line (ATCC, USA) was grown in DMEM supplemented with 10% bovine serum. […] The plate was then incubated for 24 h before adding to each well 50 μl of XTT reaction solution (Biological Industries, Beit Haemek, Israel); viability was determined as previously described (Papo et al., (2003) J. Biol. Chem. 278:21018-23). […]
Non-standard residues stand in square brackets, D forms with d. Residues, ends and D or L forms follow the SMILES beside them. *: point of attachment. Palmitoyl = CCCCCCCCCCCCCCCC(=O)*; Myristoyl = CCCCCCCCCCCCCC(=O)*; Lauroyl = CCCCCCCCCCCC(=O)*
observation.type: CC50 at 24 h (µM)
Numbers only, in µM.

The cases that follow already have their CC50 at 24 h on record.
[[record]]
molecule = "CCCCCCCCCCCCCC(=O)N[C@H](CC(C)C)C(=O)N[C@@H](CCCCN)C(=O)N[C@@H](CCCCN)C(=O)N[C@H](CC(C)C)C(=O)N[C@H](CC(C)C)C(=O)N[C@@H](CCCCN)C(=O)N[C@@H](CCCCN)C(=O)N[C@H](CC(C)C)C(=O)N[C@H](CC(C)C)C(=O)N[C@@H](CCCCN)C(=O)N[C@@H](CCCCN)C(=O)N[C@H](CC(C)C)C(N)=O [lipopeptide 23] (Myristoyl-[dL]KK[dL][dL]KK[dL][dL]KK[dL]-NH2)"
observed_measurement = 50

[[record]]
molecule = "CCCCCCCCCCCC(=O)N[C@H](CC(C)C)C(=O)N[C@@H](CCCCN)C(=O)N[C@@H](CCCCN)C(=O)N[C@H](CC(C)C)C(=O)N[C@H](CC(C)C)C(=O)N[C@@H](CCCCN)C(=O)N[C@@H](CCCCN)C(=O)N[C@H](CC(C)C)C(=O)N[C@H](CC(C)C)C(=O)N[C@@H](CCCCN)C(=O)N[C@@H](CCCCN)C(=O)N[C@H](CC(C)C)C(N)=O [lipopeptide 22] (Lauroyl-[dL]KK[dL][dL]KK[dL][dL]KK[dL]-NH2)"
observed_measurement = 50


Return reported CC50 at 24 h values for all items listed beneath this line.
1. CCCCCCCCCCCCCCCC(=O)N[C@H](CC(C)C)C(=O)N[C@@H](CCCCN)C(=O)N[C@@H](CCCCN)C(=O)N[C@H](CC(C)C)C(=O)N[C@H](CC(C)C)C(=O)N[C@@H](CCCCN)C(=O)N[C@@H](CCCCN)C(=O)N[C@H](CC(C)C)C(=O)N[C@H](CC(C)C)C(=O)N[C@@H](CCCCN)C(=O)N[C@@H](CCCCN)C(=O)N[C@H](CC(C)C)C(N)=O [lipopeptide 24] (Palmitoyl-[dL]KK[dL][dL]KK[dL][dL]KK[dL]-NH2)
2. CCCCCCCCCCCC(=O)N[C@H](CC(C)C)C(=O)N[C@@H](CCCNC(=N)N)C(=O)N[C@@H](CCCNC(=N)N)C(=O)N[C@H](CC(C)C)C(=O)N[C@H](CC(C)C)C(=O)N[C@@H](CCCNC(=N)N)C(=O)N[C@@H](CCCNC(=N)N)C(=O)N[C@H](CC(C)C)C(=O)N[C@H](CC(C)C)C(=O)N[C@@H](CCCNC(=N)N)C(=O)N[C@@H](CCCNC(=N)N)C(=O)N[C@H](CC(C)C)C(N)=O [lipopeptide 25] (Lauroyl-[dL]RR[dL][dL]RR[dL][dL]RR[dL]-NH2)

Response:
1. 50
2. 100
